All figures here come from ChEMBL document CHEMBL4043197.

target.entity: Epidermal growth factor receptor (Homo sapiens, UniProt P00533)
Sequence (P00533 whole entry): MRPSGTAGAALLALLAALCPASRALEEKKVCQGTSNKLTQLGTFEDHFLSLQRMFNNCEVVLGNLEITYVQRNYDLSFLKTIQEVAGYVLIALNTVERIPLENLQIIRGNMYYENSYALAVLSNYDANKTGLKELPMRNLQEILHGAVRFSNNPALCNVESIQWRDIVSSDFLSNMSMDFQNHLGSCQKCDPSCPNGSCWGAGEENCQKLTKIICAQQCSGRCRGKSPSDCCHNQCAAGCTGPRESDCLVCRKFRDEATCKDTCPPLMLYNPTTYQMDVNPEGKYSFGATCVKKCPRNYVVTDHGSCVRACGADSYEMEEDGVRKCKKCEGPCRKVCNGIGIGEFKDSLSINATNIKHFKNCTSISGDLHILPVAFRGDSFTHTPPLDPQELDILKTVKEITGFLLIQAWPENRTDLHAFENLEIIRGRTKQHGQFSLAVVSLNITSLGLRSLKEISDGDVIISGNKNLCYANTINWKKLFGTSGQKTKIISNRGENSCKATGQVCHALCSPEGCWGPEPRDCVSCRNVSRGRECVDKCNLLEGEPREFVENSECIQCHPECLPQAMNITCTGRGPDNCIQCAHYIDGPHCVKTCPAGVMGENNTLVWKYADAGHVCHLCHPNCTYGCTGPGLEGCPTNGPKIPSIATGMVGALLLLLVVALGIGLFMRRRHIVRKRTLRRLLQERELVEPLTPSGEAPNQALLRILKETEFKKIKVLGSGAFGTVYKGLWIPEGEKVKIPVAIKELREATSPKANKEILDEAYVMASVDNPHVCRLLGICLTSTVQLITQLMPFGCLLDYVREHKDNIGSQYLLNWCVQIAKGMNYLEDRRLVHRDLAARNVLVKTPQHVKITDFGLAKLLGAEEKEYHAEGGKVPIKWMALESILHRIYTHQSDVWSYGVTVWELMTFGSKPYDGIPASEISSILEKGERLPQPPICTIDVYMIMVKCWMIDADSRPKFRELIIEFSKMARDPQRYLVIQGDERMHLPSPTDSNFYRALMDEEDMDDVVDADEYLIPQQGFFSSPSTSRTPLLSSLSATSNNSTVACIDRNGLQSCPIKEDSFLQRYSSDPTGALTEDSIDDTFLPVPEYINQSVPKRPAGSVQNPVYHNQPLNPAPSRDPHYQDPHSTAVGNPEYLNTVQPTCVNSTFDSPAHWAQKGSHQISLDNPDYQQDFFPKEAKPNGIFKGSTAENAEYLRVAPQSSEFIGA
method: Inhibition of wild type recombinant EGFR (unknown origin) by ELISA
measured.parameter: IC50 (nM)

C#Cc1cccc(Nc2ncnc3cc(OCCCN4C[C@H](O)[C@@H](O)[C@H](O)[C@H]4CO)c(OC)cc23)c1 4.87
COc1cc2ncnc(Nc3ccc(F)c(Cl)c3)c2cc1OCCCN1C[C@H](O)[C@@H](O)[C@H](O)[C@H]1CO 10.7

(P) COc1cc2c(Nc3ccc(F)c(Cl)c3)ncnc2cc1OCCCN1C[C@H](O)[C@@H](O)[C@H](O)[C@H]1CO
(Q) COc1cc2c(Nc3ccc(OCc4cccc(F)c4)c(Cl)c3)ncnc2cc1OCCCN1C[C@H](O)[C@@H](O)[C@H](O)[C@H]1CO
Pick one: P or Q . Which one has the lower reported IC50? Use the label to indicate which entry you chose.
P

---

target.entity: Epidermal growth factor receptor (Homo sapiens)
assay.setup: at 50 nM
Description: Inhibition of wild type recombinant EGFR (unknown origin) at 50 nM by ELISA relative to control
measured.parameter: inhibition (%)

The cases that follow already have their inhibition on record.
COc1cc2c(Nc3ccc(OCc4cccc(F)c4)c(Cl)c3)ncnc2cc1OCCCN1C[C@H](O)[C@@H](O)[C@H](O)[C@H]1CO 78.2
COc1cc2ncnc(Nc3ccc(F)c(Cl)c3)c2cc1OCCN1C[C@H](O)[C@@H](O)[C@H](O)[C@H]1CO 65.2
C#Cc1cccc(Nc2ncnc3cc(OC)c(OCCN4C[C@H](O)[C@@H](O)[C@H](O)[C@H]4CO)cc23)c1 56.4
C#Cc1cccc(Nc2ncnc3cc(OCCN4C[C@H](O)[C@@H](O)[C@H](O)[C@H]4CO)c(OC)cc23)c1 53.5
COc1cc2c(Nc3ccc(F)c(Cl)c3)ncnc2cc1OCCN1C[C@H](O)[C@@H](O)[C@H](O)[C@H]1CO 53.7

(A) C#Cc1cccc(Nc2ncnc3ccc(-c4ccc(CN5C[C@H](O)[C@@H](O)[C@H](O)[C@H]5CO)o4)cc23)c1
(B) OC[C@@H]1[C@@H](O)[C@H](O)[C@@H](O)CN1Cc1ccc(-c2ccc3ncnc(Nc4ccc(F)c(Cl)c4)c3c2)o1
Higher inhibition: A or B ? Use the label to indicate which entry you chose.
B
(B: 78%, A: 27.1%)

(P) COc1cc2ncnc(Nc3ccc(F)c(Cl)c3)c2cc1OCCCN1C[C@H](O)[C@@H](O)[C@H](O)[C@H]1CO
(Q) OC[C@@H]1[C@@H](O)[C@H](O)[C@@H](O)CN1Cc1ccc(-c2ccc3ncnc(Nc4ccc(OCc5cccc(F)c5)c(Cl)c4)c3c2)o1
Higher inhibition: P or Q ? Use the label to indicate which entry you chose.
P

---

target.entity: Epidermal growth factor receptor (Homo sapiens)
assay.setup: at 50 nM
measured.parameter: inhibition (%)

COc1cc2ncnc(Nc3ccc(OCc4cccc(F)c4)c(Cl)c3)c2cc1OCCCN1C[C@H](O)[C@@H](O)[C@H](O)[C@H]1CO 74.9
C#Cc1cccc(Nc2ncnc3cc(OC)c(OCCCN4C[C@H](O)[C@@H](O)[C@H](O)[C@H]4CO)cc23)c1 79.6
COc1cc2ncnc(Nc3ccc(OCc4cccc(F)c4)c(Cl)c3)c2cc1OCCN1C[C@H](O)[C@@H](O)[C@H](O)[C@H]1CO 66.5
C#Cc1cccc(Nc2ncnc3cc(OCCCN4C[C@H](O)[C@@H](O)[C@H](O)[C@H]4CO)c(OC)cc23)c1 83.2
COc1cc2c(Nc3ccc(F)c(Cl)c3)ncnc2cc1OCCCN1C[C@H](O)[C@@H](O)[C@H](O)[C@H]1CO 85.3
